Just for reference, ChEMBL document CHEMBL3603756 is where these values come from.

# Tested on: THP-1
# TEST DESCRIPTION: Cytotoxicity against human THP1 cells assessed as cell viability at 12.5 ug/ml incubated for 24 hrs by MTS assay
# Type: functional
# SETTINGS: THP-1, 24 h, read-out: Activity
MEASURED METRIC: viability at 12.5 µg/mL (%)
Expressed in %, but write only the number.

For THP-1, give viability at 12.5 µg/mL of the listed compound: Cn1cc(C(=O)/N=C2\SCC(C)(O)N2c2ccc(Br)cc2)cn1 (stereo unspecified)
95

Under THP-1: report viability at 12.5 µg/mL of "Cc1cs/c(=N\C(=O)c2cnn(C)c2)n1-c1ccc(I)cc1" .
99

Answer with viability at 12.5 µg/mL of "Cn1cc(C(=O)NC(=S)Nc2ccccc2I)cn1" measured for THP-1.
100

Give reported viability at 12.5 µg/mL for Cn1cc(C(=O)/N=C2\SCC(C)(O)N2c2ccc(I)cc2)cn1 (stereo unspecified) (THP-1)
97

Recall the reported viability at 12.5 µg/mL of "Cn1cc(C(=O)NC(=S)Nc2ccccc2Br)cn1" on THP-1 and write it down.
98

Using THP-1 as the test system, report measured viability at 12.5 µg/mL of "Cn1cc(C(=O)NC(=S)Nc2ccc(Br)cc2)cn1" .
100
